Source of measurements: patent EP4806514A2

Molecular target: T1, hCDH17-his (full length extracellular domain of human CDH17, Q23-M787, his tag at the C-terminal) (human, UniProt Q12864 23-787)
T1 construct: Limits of the construct (UniProt Q12864, Q23-M787, C-terminal his tag); also called human CDH17-his protein; human CDH17 protein
T1 sequence: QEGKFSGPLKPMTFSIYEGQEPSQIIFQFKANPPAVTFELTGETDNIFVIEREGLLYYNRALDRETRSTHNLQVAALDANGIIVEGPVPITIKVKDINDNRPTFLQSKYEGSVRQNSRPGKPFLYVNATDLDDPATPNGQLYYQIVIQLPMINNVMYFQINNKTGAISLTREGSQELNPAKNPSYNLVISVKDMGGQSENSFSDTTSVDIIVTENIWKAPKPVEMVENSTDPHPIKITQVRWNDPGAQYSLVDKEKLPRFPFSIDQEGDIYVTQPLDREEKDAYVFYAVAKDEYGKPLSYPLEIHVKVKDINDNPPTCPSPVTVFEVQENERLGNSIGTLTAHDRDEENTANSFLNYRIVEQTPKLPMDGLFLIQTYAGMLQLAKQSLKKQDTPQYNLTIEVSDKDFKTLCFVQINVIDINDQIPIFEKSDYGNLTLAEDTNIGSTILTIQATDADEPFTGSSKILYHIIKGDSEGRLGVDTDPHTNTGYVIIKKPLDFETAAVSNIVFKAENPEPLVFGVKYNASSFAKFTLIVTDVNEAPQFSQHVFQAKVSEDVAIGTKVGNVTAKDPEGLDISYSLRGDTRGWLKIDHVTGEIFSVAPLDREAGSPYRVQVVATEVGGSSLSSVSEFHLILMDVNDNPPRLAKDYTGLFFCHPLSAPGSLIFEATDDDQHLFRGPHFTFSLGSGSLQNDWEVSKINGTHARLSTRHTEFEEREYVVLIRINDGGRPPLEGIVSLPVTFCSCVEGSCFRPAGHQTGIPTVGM
Test: SPR (Biacore 8K), two doses, antibody captured on Protein A chip, hCDH17-his at 25 nM and 100 nM
Measurement name: binding result

* 69E3H11-z12a26 (antibody, V domains shown) VH: QVQLVQSGAEVKKPGASVKVSCKASGYTFTTYWMHWVKQAPGQRLEWIGEIDPSDSYANYNQKFKGKATLTVDKSASTAYMELSSLRSEDTAVYYCALYYGYGDWGQGTTVTVSS VL: EIVLTQSPGTLSLSPGERATLSCSVSSSISSIHLHWYQQKPGQAPRLLIYRTRNLASGIPDRFSGSGSGTDFTLTISRLEPEDFAVYYCQQGSNLPLTFGQGTRLEIK | binds
* 69E3H11-z12a42 (antibody, V domains shown) VH: QVQLVQSGAEVKKPGASVKVSCKASGYTFTTYWMHWVKQAPGQRLEWIGEIDPSDSYANYNQKFKGKATLTVDKSASTAYMELSSLRSEDTAVYYCALYYGYGDWGQGTTVTVSS VL: EIVLTQSPGTLSLSPGERATLSCSVSASISRIHLHWYQQKPGQAPRLLIYRTRNRASGIPDRFSGSGSGTDFTLTISRLEPEDFAVYYCQQGSNLPLTFGQGTRLEIK | binds
